system: human apolipoprotein B mRNA; test: Inhibition of human apolipoprotein B mRNA levels in HepG2 cells, quantitative real-time PCR; assay type: cell-based; conditions: HepG2 cells treated with 150 nM of compound; averages from two experiments; quantitative real-time PCR
In the oligonucleotide strings, read from the 5' end, every base follows the letter of its sugar. An asterisk marks phosphorothioate; unmarked linkages are phosphodiester. Other units and linkages are bracketed, terminal groups are in braces. A string of capitals states the bases alone. e = 2'-O-(2-methoxyethyl) (MOE); [5mC] = 5-methylcytosine; d = 2'-deoxy (DNA)
# if value of % INHIB (inhibition of human apolipoprotein B mRNA levels) reaches 50%, tag Fulfilled; if it stays below, tag Not fulfilled

Sample answers from the record:
| SUBSTANCE | CLASS_ASSIGNMENT |
| --- | --- |
| 271013 (antisense eG*eA*eA*e[5mC]*eT*dG*d[5mC]*d[5mC]*d[5mC]*dA*dT*d[5mC]*dA*dA*dT*e[5mC]*eT*eT*eG*eA) [compound 271013] | Not fulfilled |
| 271019 (antisense eT*eA*eT*eG*eT*d[5mC]*dT*dG*d[5mC]*dA*dG*dT*dT*dG*dA*eG*eA*eT*eA*eG) [compound 271019] | Not fulfilled |
| 301012 (eG*e[5mC]*e[5mC]*eT*e[5mC]*dA*dG*dT*d[5mC]*dT*dG*d[5mC]*dT*dT*d[5mC]*eG*e[5mC]*eA*e[5mC]*e[5mC]) [compound 301012] | Fulfilled |

Query: Quick check: does 301046 (eA*eG*eT*eT*eT*dA*dG*d[5mC]*dA*dA*dA*dA*dT*dA*dA*e[5mC]*eT*e[5mC]*eA*eG; antisense) [compound 301046] have % INHIB (inhibition of human apolipoprotein B mRNA levels) greater than or equal to 50%?
Reply: Fulfilled

Query: Form field: % INHIB (inhibition of human apolipoprotein B mRNA levels) at least 50%? Entry: 281609 (antisense e[5mC]*eG*eT*eT*eG*dG*dA*dG*dT*dA*dA*dG*d[5mC]*dG*d[5mC]*e[5mC]*eT*eG*eA*eG) [compound 281609]
Reply: Fulfilled

Query: Textbook exercise: given the entry 281598 (eT*e[5mC]*eG*e[5mC]*eA*dG*d[5mC]*dT*dG*d[5mC]*dT*dG*dT*dG*d[5mC]*eT*eG*eA*eG*eG; antisense) [compound 281598] , state whether its % INHIB (inhibition of human apolipoprotein B mRNA levels) is greater than or equal to 50%.
Reply: Fulfilled

Query: Assess whether reported % INHIB (inhibition of human apolipoprotein B mRNA levels) for 271008 (antisense e[5mC]*e[5mC]*e[5mC]*eG*eG*dT*d[5mC]*dA*dG*d[5mC]*dG*dG*dA*dT*dA*eG*eT*eA*eG*eG) [compound 271008] sits at 50% or higher.
Reply: Not fulfilled

Query: Does 281622 (antisense eA*eG*e[5mC]*eA*e[5mC]*d[5mC]*dA*dG*dG*dA*dG*dA*d[5mC]*dT*dA*e[5mC]*eA*e[5mC]*eT*eT) [compound 281622] have a reported % INHIB (inhibition of human apolipoprotein B mRNA levels) of at least 50%?
Reply: Fulfilled

Query: # bool: % INHIB (inhibition of human apolipoprotein B mRNA levels) of 301047 (eT*e[5mC]*e[5mC]*e[5mC]*e[5mC]*d[5mC]*dA*dA*dG*dT*dT*dT*dA*dG*d[5mC]*eA*eA*eA*eA*eT; antisense) [compound 301047] >= 50%
Reply: Fulfilled

Query: # bool: % INHIB (inhibition of human apolipoprotein B mRNA levels) of 271046 (e[5mC]*e[5mC]*e[5mC]*eT*eA*dG*dT*dG*dT*dA*dT*dA*dT*d[5mC]*d[5mC]*e[5mC]*eA*eG*eG*eT; antisense) [compound 271046] >= 50%
Reply: Fulfilled

---

# % INHIB of rabbit apolipoprotein B mRNA levels annotations
system: rabbit apolipoprotein B mRNA; assay: Inhibition of rabbit apolipoprotein B mRNA levels in primary rabbit hepatocytes, real-time PCR; format: cell-based; parameters: concentration or dose not given beside the values
In the oligonucleotide strings, read from the 5' end, every base follows the letter of its sugar. An asterisk marks phosphorothioate; unmarked linkages are phosphodiester. Other units and linkages are bracketed, terminal groups are in braces. A string of capitals states the bases alone. e = 2'-O-(2-methoxyethyl) (MOE); [5mC] = 5-methylcytosine; d = 2'-deoxy (DNA)
Numbers only; they are read as %.

Record excerpt, results attached:
| SUBSTANCE | TESTED_SYSTEM | UNITS | RESULT_VALUE |
| --- | --- | --- | --- |
| 233186 (antisense eG*eA*eA*eG*eA*dG*dG*dA*dA*dG*dA*dA*dA*dG*dG*eA*eT*eA*eT*eG) [compound 233186] | rabbit apolipoprotein B mRNA | % | 60 |
| 233163 (antisense eA*eT*eT*eG*eT*dG*dA*dG*dT*dG*dG*dA*dG*dA*dT*eA*e[5mC]*eT*eT*e[5mC]) [compound 233163] | rabbit apolipoprotein B mRNA | % | 80 |
| 233155 (antisense eA*e[5mC]*e[5mC]*eT*e[5mC]*dA*dG*dT*dG*dA*d[5mC]*dT*dT*dG*dT*eA*eA*eT*e[5mC]*eA) [compound 233155] | rabbit apolipoprotein B mRNA | % | 47 |
| 233152 (antisense eT*e[5mC]*eA*eG*e[5mC]*dA*d[5mC]*dG*dT*dA*dG*d[5mC]*dA*dA*dT*eG*e[5mC]*eA*eT*eT) [compound 233152] | rabbit apolipoprotein B mRNA | % | 0 |
| 233153 (antisense eG*e[5mC]*e[5mC]*eT*eG*dA*dT*dA*d[5mC]*dT*d[5mC]*dA*dG*d[5mC]*dA*e[5mC]*eG*eT*eA*eG) [compound 233153] | rabbit apolipoprotein B mRNA | % | 0 |

Query: Return reported % INHIB of rabbit apolipoprotein B mRNA levels; argument: 233181 (antisense eG*e[5mC]*eA*e[5mC]*e[5mC]*d[5mC]*dA*dG*dA*dA*dT*d[5mC]*dA*dT*dG*eG*e[5mC]*e[5mC]*eT*eG) [compound 233181]
Reply: 0

Query: Entry under review: 233191 (antisense eG*eA*eA*eA*eT*dG*dG*dA*dA*dT*dT*dG*dT*dA*dG*eT*eT*e[5mC]*eT*e[5mC]) [compound 233191] . Reported % INHIB of rabbit apolipoprotein B mRNA levels?
Reply: 31

Query: Given the entry 233179 (antisense eA*eT*eG*eT*eT*dG*d[5mC]*d[5mC]*d[5mC]*dA*dT*dG*dG*d[5mC]*dT*eG*eG*eA*eA*eT) [compound 233179] , report its measured % INHIB of rabbit apolipoprotein B mRNA levels.
Reply: 65

---

tested on: PTEN; experiment: ob/ob mice (Example 50): PTEN levels; assay type: in vivo, mouse; details: high fat high cholesterol diet, 50 mg/kg i.p. twice a week, six weeks
In the oligonucleotide strings, read from the 5' end, every base follows the letter of its sugar. An asterisk marks phosphorothioate; unmarked linkages are phosphodiester. Other units and linkages are bracketed, terminal groups are in braces. A string of capitals states the bases alone. e = 2'-O-(2-methoxyethyl) (MOE); [5mC] = 5-methylcytosine; d = 2'-deoxy (DNA)
Overview of reported mRNA % control PTEN across a group of substances:
Numeric only. Scale: % control

Check out these entries, answers already filled in.
| SUBSTANCE | mRNA % control PTEN / % control |
| --- | --- |
| 116847 (antisense CTGCTAGCCTCTGGATTTGA; listed as DNA, chemistry not given here) [compound 116847] | 20.0 |
| 147764 (eG*eT*e[5mC]*e[5mC]*e[5mC]*dT*dG*dA*dA*dG*dA*dT*dG*dT*d[5mC]*eA*eA*eT*eG*e[5mC]) [compound 147764] | 115.3 |
| 147483 (ATGTCAATGCCACATGTCCA; phosphorothioate, 2'-MOE wings, chemistry not fully specified) [compound 147483] | 143.2 |

API: the following record is the query input.
Query: Param item = 141923 (CCTTCCCTGAAGGTTCCTCC; listed as DNA, chemistry not given here) [compound 141923] ; retrieve measured mRNA % control PTEN.
Reply: 113.6

---

tested on: human apolipoprotein B mRNA; test: Inhibition of human apolipoprotein B mRNA levels in HepG2 cells, quantitative real-time PCR; type: cell-based; settings: HepG2 cells treated with 150 nM of compound; averages from two experiments; quantitative real-time PCR
In the oligonucleotide strings, read from the 5' end, every base follows the letter of its sugar. An asterisk marks phosphorothioate; unmarked linkages are phosphodiester. Other units and linkages are bracketed, terminal groups are in braces. A string of capitals states the bases alone. e = 2'-O-(2-methoxyethyl) (MOE); [5mC] = 5-methylcytosine; d = 2'-deoxy (DNA)
TEST_READOUT: % INHIB (inhibition of human apolipoprotein B mRNA levels) (%)
Kindly provide the numeric value in % only, without the unit symbol.

Sample records with % INHIB (inhibition of human apolipoprotein B mRNA levels):
| SUBSTANCE | TESTED_SYSTEM | UNITS | RESULT_VALUE |
| --- | --- | --- | --- |
| 281640 (e[5mC]*eA*eG*eT*eG*d[5mC]*dA*dT*d[5mC]*dA*dA*dT*dG*dA*d[5mC]*eA*eG*eA*eT*eG; antisense) [compound 281640] | human apolipoprotein B mRNA | % | 87 |
| 301045 (eA*eG*e[5mC]*eA*eA*dA*dA*dT*dA*dA*d[5mC]*dT*d[5mC]*dA*dG*eA*eT*e[5mC]*e[5mC]*eT; antisense) [compound 301045] | human apolipoprotein B mRNA | % | 90 |
| 301014 (e[5mC]*eA*eG*e[5mC]*e[5mC]*d[5mC]*d[5mC]*dG*d[5mC]*dA*dG*dG*dT*d[5mC]*d[5mC]*e[5mC]*eG*eG*eT*eG; antisense) [compound 301014] | human apolipoprotein B mRNA | % | 88 |
| 301048 (eT*eT*e[5mC]*e[5mC]*eT*d[5mC]*d[5mC]*dT*d[5mC]*d[5mC]*d[5mC]*d[5mC]*d[5mC]*dA*dA*eG*eT*eT*eT*eA; antisense) [compound 301048] | human apolipoprotein B mRNA | % | 67 |
| 281645 (eT*e[5mC]*eT*eG*e[5mC]*dA*d[5mC]*dT*dG*dA*dA*dG*dT*d[5mC]*dA*e[5mC]*eG*eG*eT*eG; antisense) [compound 281645] | human apolipoprotein B mRNA | % | 78 |
| 281637 (antisense eA*eG*eA*eG*e[5mC]*d[5mC]*dT*dG*dA*dA*dG*dA*d[5mC]*dT*dG*eA*e[5mC]*eT*eT*e[5mC]) [compound 281637] | human apolipoprotein B mRNA | % | 74 |
| 301040 (eG*e[5mC]*e[5mC]*e[5mC]*eT*dG*dG*dT*dG*d[5mC]*d[5mC]*dA*dG*d[5mC]*dT*eT*eT*eG*eG*eT; antisense) [compound 301040] | human apolipoprotein B mRNA | % | 74 |
| 281634 (antisense e[5mC]*eT*e[5mC]*eT*e[5mC]*dG*dA*dT*dT*dA*dA*d[5mC]*dT*d[5mC]*dA*eT*eG*eG*eA*e[5mC]) [compound 281634] | human apolipoprotein B mRNA | % | 81 |
| 301024 (eA*eA*eA*eT*eG*dA*dA*dG*dA*dT*dT*dT*d[5mC]*dT*dT*eT*eT*eA*eA*eA; antisense) [compound 301024] | human apolipoprotein B mRNA | % | 5 |
| 270993 (antisense eT*eT*eG*eA*eA*dG*d[5mC]*dG*dA*dT*d[5mC]*dA*d[5mC]*dA*d[5mC]*eT*eG*e[5mC]*e[5mC]*e[5mC]) [compound 270993] | human apolipoprotein B mRNA | % | 69 |

Query: Would you mind telling me what % INHIB (inhibition of human apolipoprotein B mRNA levels) value was observed for 270994 (antisense eG*e[5mC]*e[5mC]*eT*eT*dT*dG*dA*dT*dG*dA*dG*dA*dG*d[5mC]*eA*eA*eG*eT*eG) [compound 270994] ?
Reply: 51
